# TARGET: Human thrombin (Homo sapiens, UniProt P00734)
Recorded IC50 for the following molecules

# MOLECULE, IC50
rows = [
    ("CN[C@H](CC1CCCCC1)C(=O)N1CCC[C@H]1C(=O)NC(CCC(=O)NC(=N)N)C(=O)c1nccs1 (some centres unmarked) [Example 6]", "320 nM"),
    ("CCS(=O)(=O)N[C@H](CC1CCCCC1)C(=O)N1CCC[C@H]1C(=O)NC(CCC(=O)NC(=N)N)C(=O)c1nccs1 (some centres unmarked) [Example 4]", "2590 nM"),
]
